Assay: self-splicing fitness, log relative to wild type (ln ratio); higher = more splicing; Tetrahymena group I intron in knt gene, E. coli kanamycin selection, DiMSum; sequences stand for … in CUCUCU…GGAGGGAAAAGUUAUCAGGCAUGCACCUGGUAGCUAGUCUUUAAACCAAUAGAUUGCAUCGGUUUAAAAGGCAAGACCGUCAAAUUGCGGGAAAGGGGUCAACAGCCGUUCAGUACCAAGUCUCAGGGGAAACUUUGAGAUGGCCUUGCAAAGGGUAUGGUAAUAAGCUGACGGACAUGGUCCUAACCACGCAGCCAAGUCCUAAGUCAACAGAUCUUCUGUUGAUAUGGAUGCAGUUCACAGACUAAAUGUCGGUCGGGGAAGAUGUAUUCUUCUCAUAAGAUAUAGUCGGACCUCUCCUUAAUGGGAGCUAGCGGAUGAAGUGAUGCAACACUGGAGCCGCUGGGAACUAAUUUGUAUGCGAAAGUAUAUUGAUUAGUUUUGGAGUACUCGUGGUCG;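 also: selection with 25 µg/mL kanamycin versus none on LB agar overnight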
Conditions: 30 °C
Assign condition met whenever self-splicing fitness (ln) does not fall below -2; assign condition not met whenever it does.

Some entries whose results are on file:
inputsequence=UACAAGCAAUAUUACGGCAG group="condition met"
inputsequence=GGGUAGCAAUAUUACGACAG group="condition not met"
inputsequence=GAACAGCAAUAUUACGCCUC group="condition met"
inputsequence=ACCAAGCAAUAUUACGUAGA group="condition not met"
inputsequence=AGAUAGCAAUAUUACGUGGU group="condition not met"
inputsequence=UAUAAGCAAUAUUACGUCGU group="condition not met"

Okay, next one:
Hello, I need to know if GUUUAGCAAUAUUACGACGC has measured self-splicing fitness (ln) not below -2. Thanks! condition met
